Target: pooled human IgG (human IgG1,2,3 and 4)
experimental-endpoint: Enzyme Activity Endpoint Assay: IgG (ng/µL)
Please reply with the bare figure in ng/µL and do not write the unit itself.

protein: PRT-458 (protein) MVTSVWTKGVTPPTDFIKGEDVFHAPYKAGQGWYDITKTFNGKDDLLCGAATAGNMLHWWFDQNKDQIERYLKEHPEKQKINFNGEQMFDVKEAIDTKDSQTDSKLFEYFKEKAFPYLSTKHLGVFPDHVLDMFINGYRLSLTNHGPTPVKEGSKDPRGGIFDAVFTRGDQSKLLTSRHDFKEKTLKEISDLIKQELTEGKALGLSHTYANVRINHVINLWGADFDSEGNLKAIYVTDSDSNASIGMKKYFVGVNSAGKVAISAKEIKEDNIGAQVLGLFTLSTGQDIWNQTNLEHHHHHH
reading: 112

Let us examine a further case.
## Task // Input: PRT-167 (protein) MANQEIRYSEVTPYHVTSVWTKGVTPPTDFTQGEDVFHAPYKANQGWYDITKTFNGKDDLLCGAATAGNMLHWWFDQNKDQIKRYLEEHPEKQKINFNGEQMFDVKEAIDTKNSQLDSKLFEYFKEKAFPYLSTKHLGVFPDHVIDMFINGYRLSLTNHGPTPVKEGSKDPRGGIFDAVFTRGDQSKLLTSRHDFKEKNLKEISDLIKKELTEGKALGLSHTYANVRINHVINLWGADFDSNGNLKAIYVTDSDSNASIGMKKYFVGVNSAGKVAISAKEIKEDNIGAQVLGLFTLSTGQDSWNQTN . Output its Enzyme Activity Endpoint Assay: IgG only.
## Result 0
